Catalogue of binders with associated OD450
target: T1, human MSLN-hFc protein (Acro, Cat. No. MSN-H5253) (human, UniProt Q13421 296-580); experiment: ELISA on coated antigen, antibody 0.0001 nM
T1 construct: the method names the coated protein as human MSLN-hFc (Acro); also called human MSLN full-length protein
T1 sequence (Q13421 other isoform, or with tags, fused parts or gaps limits assumed): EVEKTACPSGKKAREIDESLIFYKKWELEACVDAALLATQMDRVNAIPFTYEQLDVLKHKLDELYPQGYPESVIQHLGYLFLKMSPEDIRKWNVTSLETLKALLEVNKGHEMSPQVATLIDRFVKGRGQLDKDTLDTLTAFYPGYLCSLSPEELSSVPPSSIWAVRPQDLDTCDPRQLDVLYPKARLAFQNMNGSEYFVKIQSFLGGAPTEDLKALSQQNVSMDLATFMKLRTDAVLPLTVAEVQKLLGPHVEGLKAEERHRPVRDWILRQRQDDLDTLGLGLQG
OUTCOME MEASURE: OD450

>>> value_reported("F7.44.20-H12 (scFv, not shown: small tags and cut ends, also called S009-F7.44.20 humanized antibody VH2 + VL4) scFv: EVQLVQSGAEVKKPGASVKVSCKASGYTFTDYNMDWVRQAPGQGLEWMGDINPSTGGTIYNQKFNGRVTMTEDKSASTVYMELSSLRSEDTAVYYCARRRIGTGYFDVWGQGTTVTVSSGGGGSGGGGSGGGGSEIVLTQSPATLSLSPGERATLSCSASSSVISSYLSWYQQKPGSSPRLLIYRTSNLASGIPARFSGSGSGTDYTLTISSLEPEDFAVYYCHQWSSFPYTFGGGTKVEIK")
"0.05 OD450"
>>> value_reported("F7.44.20-H9 (scFv, not shown: small tags and cut ends, also called S009-F7.44.20 humanized antibody VH2 + VL1) scFv: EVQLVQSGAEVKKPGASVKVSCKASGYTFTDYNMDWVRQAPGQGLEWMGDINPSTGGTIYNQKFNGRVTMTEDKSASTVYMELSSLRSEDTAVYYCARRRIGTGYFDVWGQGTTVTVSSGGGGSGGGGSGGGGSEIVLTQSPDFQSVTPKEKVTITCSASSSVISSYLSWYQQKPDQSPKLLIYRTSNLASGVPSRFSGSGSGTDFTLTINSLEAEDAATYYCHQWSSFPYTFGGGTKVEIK")
"0.05 OD450"
>>> value_reported("F7.44.20-H7 (scFv, not shown: small tags and cut ends, also called S009-F7.44.20 humanized antibody VH1a + VL3) scFv: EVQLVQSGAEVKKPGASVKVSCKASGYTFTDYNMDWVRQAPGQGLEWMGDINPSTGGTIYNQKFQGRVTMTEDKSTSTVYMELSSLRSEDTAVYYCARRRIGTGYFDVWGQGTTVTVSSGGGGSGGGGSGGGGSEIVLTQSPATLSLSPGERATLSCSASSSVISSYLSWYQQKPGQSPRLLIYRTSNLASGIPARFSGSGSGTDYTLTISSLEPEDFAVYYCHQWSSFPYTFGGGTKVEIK")
"0.04 OD450"

Data credit: patent US20250250357A1
